meta.source: the antibiotic and cytotoxicity screens of Wong et al. (2023)

system: HSkMC; test: cytotoxicity call (relative viability < 0.9); conditions: 10 µM
Out of some 39,000 compounds screened, about 1,500 (3.8%) were called active. This is one part of a sample in which actives are shown more often than they occur.
Select the matching outcome among active, inactive

Examples with answers:
- MOLECULE: "COc1ccc(OC(=O)N(C)C[C@@H]2OCc3ccccc3-c3c(n(C)c4ccccc34)C(=O)N([C@@H](C)CO)C[C@H]2C)cc1"
  CATEGORY: "inactive"
- MOLECULE: "CN(C)C(=O)CCC(=O)N1C[C@H]2C[C@@H]1CN2"
  CATEGORY: "inactive"
- MOLECULE: "CCN1C(=O)/C(=C/c2ccc[nH]2)C(=O)NC1=S"
  CATEGORY: "inactive"
- MOLECULE: "Cl.Oc1noc2c1CCNC2"
  CATEGORY: "inactive"

Lookup: For this molecule, state the assay outcome: COP(=O)(OC)OC(Br)C(Cl)(Cl)Br (stereo unspecified)
Found: inactive

Lookup: Hi, do you know how CCOC(OCC)P(=O)(O)CCCN came out in this test?
Found: inactive

Lookup: Per the records of this test, what outcome belongs to CC(C)C[C@@H](NC(=O)[C@H](Cc1ccccc1)NC(=O)CNC(=O)[C@@H](C)NC(=O)[C@@H](N)Cc1ccc(O)cc1)C(=O)O ?
Found: inactive

Lookup: Give the logged outcome of this assay for the following molecule: CCCCCCCCCCCCCCCC[N+](C)(C)C.[Br-]
Found: active

Lookup: What is the recorded call for this molecule in the test? Nc1ccc2c(c1)CNCC2
Found: inactive

Lookup: Returns: the outcome recorded for C=CCN1C(=O)NC(=O)/C(=C/c2ccco2)C1=O in this assay.
Found: active

Lookup: I would be grateful if you could indicate the recorded call for CN1C(=O)NC(=O)/C(=C\C=C\c2ccco2)C1=O .
Found: inactive

* * *

tested on: HSkMC; experiment: cytotoxicity call (relative viability < 0.9); conditions: 10 µM
Screen size: about 39,000 compounds; about 1,500 (3.8%) were called active. The sample as a whole holds a higher share of actives than the screen did.
ENDPOINT_NAME: cytotoxicity call

- MOLECULE: "COc1ccc(OC(=O)N(C)C[C@@H]2OCc3ccccc3-c3c(n(C)c4ccccc34)C(=O)N([C@H](C)CO)C[C@H]2C)cc1"
  EXPERIMENTAL_VALUE: "active"
- MOLECULE: "C1COC2(CCOCC2)CN1"
  EXPERIMENTAL_VALUE: "inactive"
- MOLECULE: "COc1ccc(OC(=O)N(C)C[C@H]2OCc3ccccc3-c3c(n(C)c4ccccc34)C(=O)N([C@H](C)CO)C[C@@H]2C)cc1"
  EXPERIMENTAL_VALUE: "inactive"
- MOLECULE: "Cc1ccc(OC(=O)N(C)C[C@H]2OCc3ccccc3-c3c(n(C)c4ccccc34)C(=O)N([C@H](C)CO)C[C@@H]2C)cc1"
  EXPERIMENTAL_VALUE: "active"

* * *

system: HSkMC (human skeletal muscle cells); assay: cytotoxicity call (relative viability < 0.9); conditions: 10 µM
The whole screen tested about 39,000 compounds, of which about 1,500 (3.8%) were called active. This excerpt belongs to a sample that is enriched for actives.
Log the outcome using a class from active, inactive

Answered examples (10):
- COMPOUND: "CC1CC(C)C(=O)C(C(O)CC2CC(=O)NC(=O)C2)C1 (stereo unspecified)"
  CATEGORY: "inactive"
- COMPOUND: "Cc1cc(O)c2c(=O)c3c(O)cc(O)c4c5c(O)cc(O)c6c(=O)c7c(O)cc(C)c8c1c2c(c34)c(c78)c65"
  CATEGORY: "active"
- COMPOUND: "CC(C)c1ccc2[nH]c(=O)c(CCN)cc2c1"
  CATEGORY: "inactive"
- COMPOUND: "N[C@]1(C(=O)O)CC[C@@H](C(=O)O)C1"
  CATEGORY: "inactive"
- COMPOUND: "CCC(=O)CCCCC[C@@H]1NC(=O)[C@H]2CCCCN2C(=O)[C@H]([C@@H](C)CC)NC(=O)[C@H](Cc2cn(OC)c3ccccc23)NC1=O"
  CATEGORY: "active"
- COMPOUND: "CCC(=O)CCCCC[C@@H]1NC(=O)[C@H]2CCCCN2C(=O)[C@H]([C@H](C)CC)NC(=O)[C@H](Cc2cn(OC)c3ccccc23)NC1=O"
  CATEGORY: "active"
- COMPOUND: "C1CCN(C[C@H]2CO[C@]3(CNCCOC3)C2)C1"
  CATEGORY: "inactive"
- COMPOUND: "COC(=O)[C@H]1O[C@@H]2C[C@H]3O[C@@H](n4cnc5c(N)ncnc54)[C@H](OC)[C@H]3O[C@@]2(O)[C@@H](O)[C@@H]1O"
  CATEGORY: "inactive"
- COMPOUND: "C[C@@H]1C(=O)O[C@H]2[C@H](O)[C@@]34[C@@H]5OC(=O)[C@@]3(O[C@@H]3OC(=O)[C@H](O)[C@@]34[C@H](C(C)(C)C)[C@H]5O)[C@@]12O"
  CATEGORY: "inactive"
- COMPOUND: "CN[C@@H](C)Cc1cnccn1"
  CATEGORY: "inactive"

Lookup: Hello, I am checking results. What call was entered for COc1c2c(cc3c1OCO3)CC[N+](C)=C2.[Cl-] ?
Found: inactive

Lookup: Could you please tell me the result logged for Br.COC(=O)C1=CCCN(C)C1 in this assay?
Found: inactive

Lookup: Could you check what this test reported for COc1ccc(O)c(C(C)(C)C)c1 ?
Found: inactive

Lookup: State the result this test recorded for C[C@H]1C[C@H]2CNCC[C@@H]2O1 .
Found: inactive

Lookup: Kindly provide the recorded test outcome for the following compound: O=C1CCN(C(=O)C2CCC2)CC1
Found: inactive

Lookup: What was the test verdict on N=C(N)N/N=C/c1ccc2c(c1)OCO2 ?
Found: inactive
